Where do the numbers come from? From PubChem BioAssay (Tox21).

- STUDY_TARGET: Cytochrome P450 2C19 (Homo sapiens)
- RUN_DESCRIPTION: Cytochrome P450 Family 2 Subfamily C Member 19 (CYP2C19) small molecule antagonists: luciferase reporter qHTS assay (AID 1671197); note: nearly all actives have a fitted effect of over 65% in size
- SETUP_CONDITIONS: P450-Glo CYP2C19 enzyme, luciferin luminescence, 1 h; series mostly up to 52.9 µM
Results filed as inconclusive are left out. Active and inactive are the calls of the source. Calls come from the whole dose curve; as a rule, active = well fitted inhibition curve with a large enough effect in the repeat runs; inconclusive = weak or mixed curves; inactive = no such curve, though single readings can be large or run the other way.
Possible outcomes: t for active, f for inactive

>  <MOLECULE>
CN(C)CCN(Cc1ccsc1)c1ccccn1

>  <ANSWER_LABEL>
f

$$$$
>  <MOLECULE>
OC(CN1CCC(Cc2ccc(F)cc2)CC1)c1ccc(Cl)cc1 (centres undefined)

>  <ANSWER_LABEL>
f

$$$$
>  <MOLECULE>
CN(C)c1ccc(C(c2ccccc2)c2ccc(N(C)C)cc2)cc1

>  <ANSWER_LABEL>
t

$$$$
>  <MOLECULE>
CC(C)(COC(=O)c1ccccc1)COC(=O)c1ccccc1

>  <ANSWER_LABEL>
t

$$$$
>  <MOLECULE>
CN1C[C@H]2c3ccccc3Oc3ccc(Cl)cc3[C@@H]2C1

>  <ANSWER_LABEL>
f

$$$$
>  <MOLECULE>
CCCC(=O)Nc1ccc(O)c(C(C)=O)c1

>  <ANSWER_LABEL>
f

$$$$
>  <MOLECULE>
NCCCN1CCOCC1

>  <ANSWER_LABEL>
f

$$$$
>  <MOLECULE>
C/C=C(/C(=C/C)c1ccc(OC(C)=O)cc1)c1ccc(OC(C)=O)cc1

>  <ANSWER_LABEL>
t

$$$$
>  <MOLECULE>
c1cc(CCCc2ccncc2)ccn1

>  <ANSWER_LABEL>
t

$$$$
>  <MOLECULE>
CC(=O)OC[C@H]1O[C@@H](n2ncc(=O)[nH]c2=O)[C@H](OC(C)=O)[C@@H]1OC(C)=O

>  <ANSWER_LABEL>
f

$$$$
>  <MOLECULE>
CNCCCN1c2ccccc2CCc2ccccc21

>  <ANSWER_LABEL>
f

$$$$
>  <MOLECULE>
CCCCCCCCCCCc1ccccc1

>  <ANSWER_LABEL>
f

$$$$
>  <MOLECULE>
CCOC(=O)NCCOc1ccc(Oc2ccccc2)cc1

>  <ANSWER_LABEL>
t

$$$$
>  <MOLECULE>
COc1cc2nc(N3CCN(C(=O)C4COc5ccccc5O4)CC3)nc(N)c2cc1OC (centres undefined)

>  <ANSWER_LABEL>
f

$$$$
